# assayed_target: binding partner of C5A (XPA23)
# assay_comment: Biacore K-off
Recorded fold difference in affinity vs original, one value per entry.
Field format: number, assumed fold, no unit text.

{"binder": "C5A (XPA23) VL A91V (antibody, V domains shown) VH: EVQLLESGGGLVQPGGSLRLSCAASGFTFSKYFMFWVRQAPGKGLEWVSVISPSGGMTRYADSVKGRFTISRDNSKNTLYLQMNSLRAEDTAVYYCARVGYGGNSDYWGQGTLVTVSS VL: DIQMTQSPSSVSASVGDRLTIICRASQDINRWLAWYQQTPGNAPKLLIHSATSLQSGVPSRFSGSGSGTDFTLTINSLQPEDFATYYCQQVDSFPLTFGGGTKVEIK", "assay_metric": "fold difference in affinity vs original", "numeric_readout": 0.51}
{"binder": "C5A (XPA23) VL S53V (antibody, V domains shown) VH: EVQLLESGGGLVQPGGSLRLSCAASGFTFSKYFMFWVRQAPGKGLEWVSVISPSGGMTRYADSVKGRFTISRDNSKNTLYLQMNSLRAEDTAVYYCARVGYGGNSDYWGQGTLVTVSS VL: DIQMTQSPSSVSASVGDRLTIICRASQDINRWLAWYQQTPGNAPKLLIHSATVLQSGVPSRFSGSGSGTDFTLTINSLQPEDFATYYCQQADSFPLTFGGGTKVEIK", "assay_metric": "fold difference in affinity vs original", "numeric_readout": 1.42}

In the following, a different binder is considered.
Sample C5A (XPA23) VL L96H (antibody, V domains shown) VH: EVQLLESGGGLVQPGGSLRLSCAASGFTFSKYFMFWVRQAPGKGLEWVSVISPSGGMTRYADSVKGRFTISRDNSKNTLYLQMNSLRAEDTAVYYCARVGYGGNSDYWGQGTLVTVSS VL: DIQMTQSPSSVSASVGDRLTIICRASQDINRWLAWYQQTPGNAPKLLIHSATSLQSGVPSRFSGSGSGTDFTLTINSLQPEDFATYYCQQADSFPHTFGGGTKVEIK ; fold difference in affinity vs original observed: 0.07
